Tested on: absorption of sodium from the intestinal lumen
Assay: Inhibition of intestinal sodium absorption in rats
Format: in vivo, Sprague Dawley rats
Settings: rats, 0.1 mg/kg, 13-hours post-dose; group median fecal form score, 1 normal pellet to 5 liquid fecal streams
Method: Urinary sodium excretion and fecal form were measured to assess the ability of selected example compounds to inhibit the absorption of sodium from the intestinal lumen. […] At 13-hours post-dose, urine samples were collected and fecal form was assessed. In addition, the weight of food consumed over the 13-hour period was measured and recorded. […] Fecal form score (FFS) was calculated for each group as the median of each individual rat's FFS within the group and reported in Table 7. […]
FFS (1-5) reference
Quantity kind: FFS (1-5)

N#Cc1cc(Cl)cc2c1C[C@H](N1CCNCC1)[C@H]2Oc1ccc(S(=O)(=O)NCCOCCOCCNC(=O)NCCCCNC(=O)NCCOCCOCCNS(=O)(=O)c2ccc(O[C@H]3c4cc(Cl)cc(C#N)c4C[C@@H]3N3CCNCC3)cc2)cc1; 5
C[C@@H]1CN([C@H]2Cc3c(C#N)cc(Cl)cc3[C@@H]2Oc2ccc(S(=O)(=O)N[C@H]3CCN(CCOCCNC(=O)NCCCCNC(=O)NCCOCCN4CC[C@H](NS(=O)(=O)c5ccc(O[C@H]6c7cc(Cl)cc(C#N)c7C[C@@H]6N6CCN[C@H](C)C6)cc5)C4)C3)cc2)CCN1; 3
N#Cc1cc(Cl)cc2c1C[C@H](N1CCNCC1)[C@H]2Oc1ccc(S(=O)(=O)N[C@H]2CCN(CCOCCNC(=O)NCCCCNC(=O)NCCOCCN3CC[C@H](NS(=O)(=O)c4ccc(O[C@H]5c6cc(Cl)cc(C#N)c6C[C@@H]5N5CCNCC5)cc4)C3)C2)cc1 [Example 107, (trifluoroacetate)]; 3
N#Cc1cc(Cl)cc2c1C[C@H](N1CCNCC1)[C@H]2Oc1ccc(S(=O)(=O)N[C@H]2CCN(C(=O)CCCNC(=O)NCCCCNC(=O)NCCCC(=O)N3CC[C@H](NS(=O)(=O)c4ccc(O[C@H]5c6cc(Cl)cc(C#N)c6C[C@@H]5N5CCNCC5)cc4)C3)C2)cc1; 3
N#Cc1cc(Cl)cc2c1C[C@H](N1CCNCC1)[C@H]2Oc1ccc(S(=O)(=O)NC2CCN(C(=O)CCCNC(=O)NCCCCNC(=O)NCCCC(=O)N3CCC(NS(=O)(=O)c4ccc(O[C@H]5c6cc(Cl)cc(C#N)c6C[C@@H]5N5CCNCC5)cc4)CC3)CC2)cc1; 2
CN(C)[C@H]1CCCN([C@H]2Cc3c(C#N)cc(Cl)cc3[C@@H]2Oc2ccc(S(=O)(=O)NCCOCCOCCNC(=O)NCCCCNC(=O)NCCOCCOCCNS(=O)(=O)c3ccc(O[C@H]4c5cc(Cl)cc(C#N)c5C[C@@H]4N4CCC[C@H](N(C)C)C4)cc3)cc2)C1; 2
N#Cc1cc(Cl)cc2c1C[C@H](N1CCNCC1)[C@H]2Oc1ccc(S(=O)(=O)N2CCC(NC(=O)CCCNC(=O)NCCCCNC(=O)NCCCC(=O)NC3CCN(S(=O)(=O)c4ccc(O[C@H]5c6cc(Cl)cc(C#N)c6C[C@@H]5N5CCNCC5)cc4)CC3)CC2)cc1; 3
N#Cc1cc(Cl)cc2c1C[C@H](N1CCNCC1)[C@H]2Oc1ccc(S(=O)(=O)NC2CCN(CCOCCNC(=O)NCCCCNC(=O)NCCOCCN3CCC(NS(=O)(=O)c4ccc(O[C@H]5c6cc(Cl)cc(C#N)c6C[C@@H]5N5CCNCC5)cc4)CC3)CC2)cc1; 3
C[C@@H]1CN([C@H]2Cc3c(C#N)cc(Cl)cc3[C@@H]2Oc2ccc(S(=O)(=O)N[C@@H]3CCN(CCOCCNC(=O)NCCCCNC(=O)NCCOCCN4CC[C@@H](NS(=O)(=O)c5ccc(O[C@H]6c7cc(Cl)cc(C#N)c7C[C@@H]6N6CCN[C@H](C)C6)cc5)C4)C3)cc2)CCN1; 3
